# Read-out: Hypoxia-inducible factor 1-alpha (Homo sapiens)
# experimental_details: LTEA_HepaRG_HIF1A: Life Technologies and Expression Analysis (LTEA) Assay for Hypoxia-inducible factor 1 (HIF1A) Trancription factor using HepaRG (AID 2283503);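 also: HIF1A transcript by TaqMan qRT-PCR normalized to ACTB GAPDH and POLR2A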
# details: mRNA level, 48 h; actives raise or lower the signal
Calls of active or inactive are those of the source. The calls were made as follows: active = hit-call score of the fitted dose curve at least 0.9, where 1 is the maximum; inactive = score below 0.9.
Classes used: active, inactive

molecule: CC(C)c1cccc(C(C)C)c1NC(=O)NS(=O)(=O)c1cc(C(C)(C)O)co1
answer_label: inactive
--
molecule: COC(=O)CCCC(=O)OC
answer_label: inactive
--
molecule: Cc1c(C)c2c(c(C)c1O)CCC(C)(COc1ccc(CC3SC(=O)NC3=O)cc1)O2 (stereo unspecified)
answer_label: active
--
molecule: COc1ccc(C(=O)Nc2nc3ccccc3c(NCc3ccccc3)c2C#N)cc1
answer_label: inactive
--
molecule: CCc1cc(C2=C(C(=O)O)N(c3ccccc3C(F)(F)F)S(=O)(=O)c3ccccc32)cc2c1OCO2
answer_label: inactive
--
molecule: C=CCCCCCCCCCCCC
answer_label: inactive
--
molecule: CCCCCCC(CCCCCCCCCCC(=O)OCC(COC(C)=O)OC(C)=O)OC(C)=O (stereo unspecified)
answer_label: inactive
--
molecule: O=C(O)c1cccnc1
answer_label: inactive
--
molecule: CCCCOC(=O)CCCCC(=O)OCCCC
answer_label: inactive
--
molecule: CCN(CC)CCOc1ccc(C(=C(Cl)c2ccccc2)c2ccccc2)cc1
answer_label: inactive
--
molecule: O=Cc1ccccc1C=O
answer_label: inactive
--
molecule: CSc1ccc(Oc2ccc(S(N)(=O)=O)cc2CN(C)C)cc1C
answer_label: inactive
--
molecule: CC(=O)S[C@H](C(=O)N[C@H]1Cc2ccccc2[C@H]2CCC[C@@H](C(=O)O)N2C1=O)C(C)C
answer_label: inactive
--
molecule: COc1ccc(OC(F)(F)F)cc1CN[C@H]1CCCN[C@H]1c1ccccc1
answer_label: inactive
--
molecule: CN(C)C(=O)NC1(c2ccccc2)CCN(CCC[C@]2(c3ccc(Cl)c(Cl)c3)CCCN(C(=O)c3ccccc3)C2)CC1
answer_label: inactive
--
molecule: S=c1[nH]c2ccccc2s1
answer_label: inactive
--
molecule: CC(=O)OC1CC(C)OC(C)O1 (stereo unspecified)
answer_label: inactive
--
molecule: OCC(CO)n1cnc(-c2ccc(F)cc2)c1-c1ccnc(Oc2ccccc2)n1
answer_label: inactive
--
molecule: O=C(Oc1ccccc1)c1cccc(C(=O)Oc2ccccc2)c1
answer_label: inactive
--
molecule: CCCC[C@H]1CN(CC2CCOCC2)C(=O)OC12CCN(C1(C)CCN(C(=O)c3c(C)ncnc3C)CC1)CC2
answer_label: inactive
--
molecule: O=C(NS(=O)(=O)/C=C/c1cccs1)c1ccc(F)cc1Br
answer_label: inactive
--
molecule: O=NO
answer_label: inactive
--
molecule: NC1CCCCC1
answer_label: inactive
--
molecule: O=[Si]=O
answer_label: inactive
--
molecule: CCCCCCCC(=O)OC
answer_label: inactive
--
molecule: NCCOCCOCCN
answer_label: inactive

----------
# Read-out: Vascular cell adhesion molecule 1 (VCAM1), VCAM1 (gene 7412)
# experimental_details: BSK_CASM3C_VCAM1: BioMAP Diversity Plus: CASM3C Assay for Vascular cell adhesion molecule 1 (VCAM1) Biomarker Activity (AID 2283055);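 also: VCAM-1 protein level quantified by ELISA on the cells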
# details: primary human coronary artery smooth muscle cells; actives raise or lower the signal
The source made the active and inactive calls. How the source made its calls: active means hit-call score of the fitted dose curve at least 0.9, where 1 is the maximum; inactive means score below 0.9.
Classes used: class 1 for active, class 0 for inactive

smiles_str: CC1(C)C(=O)NC(=O)N1CO
answer_label: class 0
--
smiles_str: CN(C)CCCN1c2ccccc2Sc2ccc(Cl)cc21
answer_label: class 0
--
smiles_str: COc1ccc(OC(F)(F)F)cc1CN[C@H]1CCCN[C@H]1c1ccccc1
answer_label: class 0
--
smiles_str: NC1CCCCC1
answer_label: class 0
--
smiles_str: O=Cc1ccccc1C=O
answer_label: class 0
--
smiles_str: Cc1ccc(-c2cc(C(F)(F)F)nn2-c2ccc(S(N)(=O)=O)cc2)cc1
answer_label: class 1
--
smiles_str: Cc1occc(=O)c1O
answer_label: class 0

----------
# Read-out: growth arrest and DNA damage 45 (GADD45G), GADD45G (gene 10912)
# experimental_details: LTEA_HepaRG_GADD45G: Life Technologies and Expression Analysis (LTEA) Assay for growth arrest and DNA damage 45 (GADD45G) using HepaRG (AID 2283499)
# details: mRNA level, 48 h; actives raise or lower the signal
Activity calls are given as the source filed them. The calls were made as follows: active = hit-call score of the fitted dose curve at least 0.9, where 1 is the maximum; inactive = score below 0.9.
Classes used: yes (1) for active, no (0) for inactive

compound: O=C1O[C@H]([C@H](O)CO)C(O)=C1O
answer_label: no (0)

compound: O=[Si]=O
answer_label: no (0)

compound: CCCCCCCCCC[N+](C)(C)[O-]
answer_label: no (0)

compound: Cc1c(C)c2c(c(C)c1O)CCC(C)(COc1ccc(CC3SC(=O)NC3=O)cc1)O2 (stereo not drawn)
answer_label: yes (1)

compound: CCOCCOCCO
answer_label: no (0)

compound: O=C(O)CN(CC(=O)O)CC(=O)O
answer_label: no (0)

compound: CC(=O)O
answer_label: no (0)

compound: Nc1nc(=S)c2[nH]cnc2[nH]1
answer_label: no (0)

----------
# experimental_details: BSK_4H_SRB: Viability Assessment in the BioMAP Diversity Plus: 4H Assay (AID 2283027);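 also: cells exposed to compound for 24 h before staining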
# details: primary human endothelial cells (HUVEC)
Calls of active or inactive are those of the source. How the source made its calls: active means hit-call score of the fitted dose curve at least 0.9, where 1 is the maximum; inactive means score below 0.9.
Classes used: active, inactive

compound: CC(C)COC(=O)CCCCC(=O)OCC(C)C
answer_label: inactive
--
compound: O=Cc1ccccc1C=O
answer_label: inactive
--
compound: Oc1ccc(O)cc1
answer_label: inactive
--
compound: O=C1c2c(O)cccc2Cc2cccc(O)c21
answer_label: active
--
compound: NC1CCCCC1
answer_label: inactive
--
compound: CN(C)CCCN(C)CCCN(C)C
answer_label: inactive
--
compound: CO[C@@H]1COCC[C@@H]1N[C@@H]1CC[C@@](C(=O)N2CCc3ncc(C(F)(F)F)cc3C2)(C(C)C)C1
answer_label: inactive
--
compound: Cc1ccc(C(C)(C)C)c(O)c1
answer_label: inactive
--
compound: CCCCCCCCCC[N+](C)(C)[O-]
answer_label: inactive
--
compound: COC(=O)CCC(=O)OC
answer_label: inactive
--
compound: Oc1ccccc1O
answer_label: active
--
compound: CC(C)(C)c1ccccc1
answer_label: inactive
--
compound: Cc1cc(Cc2ccc(N)c(C)c2)ccc1N
answer_label: inactive
--
compound: CC1=C(C)S(=O)(=O)CCS1(=O)=O
answer_label: inactive
--
compound: OCC(O)CO
answer_label: inactive
--
compound: CS(=O)(=O)c1ccc([C@@H](C[C@H]2CCC(=O)C2)C(=O)Nc2cnccn2)cc1Cl
answer_label: inactive
--
compound: O=NO
answer_label: inactive
--
compound: O=C(O)c1cccnc1
answer_label: inactive
--
compound: CCCCCCC(CCCCCCCCCCC(=O)OCC(COC(C)=O)OC(C)=O)OC(C)=O (centres undefined)
answer_label: inactive
--
compound: O=C(O)CC(O)(CC(=O)O)C(=O)O
answer_label: inactive
--
compound: CCCCCCCCCCCCCCOS(=O)(=O)O
answer_label: inactive
--
compound: O=[Si]=O
answer_label: inactive
--
compound: CC(=O)OC1CC(C)OC(C)O1 (centres undefined)
answer_label: inactive
--
compound: CCc1nc(N)nc(N)c1-c1ccc(Cl)cc1
answer_label: inactive
--
compound: CC(C)OC(=O)C(C)(C)Oc1ccc(C(=O)c2ccc(Cl)cc2)cc1
answer_label: inactive
--
compound: CC(=O)OCC(COC(C)=O)OC(C)=O
answer_label: inactive
--
compound: C/C=C/C=C/C(=O)O
answer_label: inactive
--
compound: Cc1cc(SC2=C(O)C[C@@](CCc3ccc(N)cc3)(C(C)C)OC2=O)c(C(C)(C)C)cc1CO
answer_label: inactive
--
compound: O=C1CCCCC1
answer_label: inactive
--
compound: Cc1occc(=O)c1O
answer_label: inactive
--
compound: NCCOCCOCCN
answer_label: inactive
--
compound: O=C(NS(=O)(=O)/C=C/c1cccs1)c1ccc(F)cc1Br
answer_label: inactive
--
compound: CN(C)C(=O)NC1(c2ccccc2)CCN(CCC[C@]2(c3ccc(Cl)c(Cl)c3)CCCN(C(=O)c3ccccc3)C2)CC1
answer_label: inactive
--
compound: CCCCc1nc2cccnc2n1Cc1ccc(-c2ccccc2-c2nnn[nH]2)cc1
answer_label: inactive
--
compound: S=c1[nH]c2ccccc2s1
answer_label: inactive
--
compound: CCCC[C@H]1CN(CC2CCOCC2)C(=O)OC12CCN(C1(C)CCN(C(=O)c3c(C)ncnc3C)CC1)CC2
answer_label: inactive
--
compound: NC(=Nc1ccccc1)Nc1ccccc1
answer_label: inactive
--
compound: Cc1ccc(-c2cc(C(F)(F)F)nn2-c2ccc(S(N)(=O)=O)cc2)cc1
answer_label: active
--
compound: CCCCCCC(C=O)=Cc1ccccc1
answer_label: active
--
compound: NC=O
answer_label: inactive
--
compound: CC(=O)CC(c1ccccc1)c1c(O)c2ccccc2oc1=O (centres undefined)
answer_label: inactive
--
compound: Cn1cnc2c1c(=O)[nH]c(=O)n2C
answer_label: inactive
--
compound: CCc1cc(C2=C(C(=O)O)N(c3ccccc3C(F)(F)F)S(=O)(=O)c3ccccc32)cc2c1OCO2
answer_label: inactive
--
compound: COC(=O)CCCC(=O)OC
answer_label: inactive
--
compound: COc1ccc(C(=O)Nc2nc3ccccc3c(NCc3ccccc3)c2C#N)cc1
answer_label: inactive
--
compound: Nc1nc(Cl)nc2c1ncn2[C@H]1C[C@H](O)[C@@H](CO)O1
answer_label: inactive
--
compound: CC(N)=O
answer_label: inactive
--
compound: CN(C)CCCN1c2ccccc2Sc2ccc(Cl)cc21
answer_label: active
--
compound: CC1(C)C(=O)NC(=O)N1CO
answer_label: inactive
--
compound: O=C(Oc1ccccc1)c1cccc(C(=O)Oc2ccccc2)c1
answer_label: inactive
--
compound: O=C1NC(=O)C(c2ccccc2)(c2ccccc2)N1
answer_label: inactive
--
compound: CSc1ccc(Oc2ccc(S(N)(=O)=O)cc2CN(C)C)cc1C
answer_label: inactive
--
compound: O=C1O[C@H]([C@H](O)CO)C(O)=C1O
answer_label: inactive
--
compound: C=CCc1ccc(OC)c(OC)c1
answer_label: inactive
